- measured_on: T1, human GIP receptor (human) (UniProt P48546)
- T1 sequence (looked up): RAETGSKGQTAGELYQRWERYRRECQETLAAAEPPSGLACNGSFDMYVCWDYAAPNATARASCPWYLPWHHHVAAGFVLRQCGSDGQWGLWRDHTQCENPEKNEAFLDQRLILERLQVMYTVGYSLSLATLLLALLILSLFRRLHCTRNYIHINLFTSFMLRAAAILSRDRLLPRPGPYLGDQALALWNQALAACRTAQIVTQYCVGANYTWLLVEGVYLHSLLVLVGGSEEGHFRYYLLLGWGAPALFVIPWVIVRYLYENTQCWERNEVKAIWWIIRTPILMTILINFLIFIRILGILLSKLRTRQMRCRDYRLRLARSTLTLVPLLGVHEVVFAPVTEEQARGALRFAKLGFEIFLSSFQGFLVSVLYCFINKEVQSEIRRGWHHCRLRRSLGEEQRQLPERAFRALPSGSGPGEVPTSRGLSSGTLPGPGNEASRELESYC
- test_details: cell-based or functional assay
Starred links: 1 amine or outer side, 2 acyl side, 3 side chain; linkers in the order of their positions; H or OH if unused. Non-standard residues stand in square brackets, D forms with d. Groups on a side chain read outwards from the residue. No end group written: not given here. *: point of attachment. C20 diacid = O=C(O)CCCCCCCCCCCCCCCCCCC(=O)*; γGlu = O=C(O)[C@H](CCC(=O)[*:2])N[*:1]; αMeL = CC(C)C[C@](C)(N)C(=O)O; AEEA = NCCOCCOCC(=O)O; Aib = CC(C)(N)C(=O)O
Threshold check on cAMP Rel EC50 (1% HSA): at or above 4 nM gives met, strictly below gives not met.

[
  {
    "binder": "YXQGTXTSDXXIXLDXKAQXXFIEXLAEGGPSSGEPPPSGTE (synthetic construct; SITE 2: note = 2-Aminoisobutyric Acid; SITE 6: note = alpha-methyl-2-fluoro-L-phenylalanine; SITE 10: note = 3-(4-Pyridyl)-L-alanine; SITE 11: note = alpha-methyl-L-serine; SITE 13: note = alpha-methyl-leucine; SITE 16: note = L-ornithine; SITE 17: note = Lysine is chemically mo) [Example 544]",
    "qualitative_label": "not met"
  },
  {
    "binder": "YXQGTFTSDXXQXLDXKAQXQFIQXLIAGGPSSGEPPPSGGGE (not fully specified; non-natural residues; C18 diacid-γGlu-e on Lys; C-terminal amide; synthetic construct; SITE 2: note = 2-Aminoisobutyric Acid; SITE 10: note = 3-(4-Pyridyl)-L-alanine; SITE 11: note = alpha-methyl-L-serine; SITE 13: note = alpha-methyl-leucine; SITE 16: note = L-ornithine; SITE 17: note = Lysine is chemically modified through conjugation of the epsilon-amino group) [Example 1133]",
    "qualitative_label": "met"
  },
  {
    "binder": "YXQGTXTSDXXIXLDXXAQXEFIEXLIEGGPSSGAPPPSGS (synthetic construct; SITE 2: note = 2-Aminoisobutyric Acid; SITE 6: note = alpha-methyl-2-fluoro-L-phenylalanine; SITE 10: note = 3-(4-Pyridyl)-L-alanine; SITE 11: note = alpha-methyl-L-serine; SITE 13: note = alpha-methyl-leucine; SITE 16: note = L-ornithine; SITE 17: note = Ornithine is chemically) [Example 1211]",
    "qualitative_label": "not met"
  },
  {
    "binder": "YXQGTFTSDXSQXLDXKAQXAFIEYLIAXGPSSGAPPPSGSEE (non-natural residues; acylated Lys C18 diacid; C-term amide; synthetic construct; SITE 2: note = 2-Aminoisobutyric Acid; SITE 10: note = 3-(4-Pyridyl)-L-alanine; SITE 13: note = alpha-methyl-leucine; SITE 16: note = L-ornithine; SITE 17: note = Lysine is chemically modified through conjugation of the epsilon-amino group of the Lysine side chain with (gamma-Gl)) [Example 1091]",
    "qualitative_label": "met"
  },
  {
    "binder": "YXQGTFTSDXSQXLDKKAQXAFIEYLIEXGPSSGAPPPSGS (non-natural residues; C18 diacid-γGlu-e on Lys; C-terminal amide; synthetic construct; SITE 2: note = 2-Aminoisobutyric Acid; SITE 10: note = 3-(4-Pyridyl)-L-alanine; SITE 13: note = alpha-methyl-leucine; SITE 17: note = Lysine is chemically modified through conjugation of the epsilon-amino group of the Lysine side chain with D-Glutamic acid-(gamma-Glu)-CO-(CH2)16) [Example 920]",
    "qualitative_label": "met"
  },
  {
    "binder": "YXQGTXTSDXXIXLDXKAQXNFIEXLQEGGPSSGEPPPEGT (synthetic construct; SITE 2: note = 2-Aminoisobutyric Acid; SITE 6: note = alpha-methyl-2-fluoro-L-phenylalanine; SITE 10: note = 3-(4-Pyridyl)-L-alanine; SITE 11: note = alpha-methyl-L-serine; SITE 13: note = alpha-methyl-leucine; SITE 16: note = L-ornithine; SITE 17: note = Lysine is chemically mo) [Example 525]",
    "qualitative_label": "not met"
  },
  {
    "binder": "YXQGTXTSDXXIXLDXKAAXEFIEXLIEGGPSSGAPPPSGTGX (synthetic construct; SITE 2: note = 2-Aminoisobutyric Acid; SITE 6: note = alpha-methyl-2-fluoro-L-phenylalanine; SITE 10: note = 3-(4-Pyridyl)-L-alanine; SITE 11: note = alpha-methyl-L-serine; SITE 13: note = alpha-methyl-leucine; SITE 16: note = L-ornithine; SITE 17: note = Lysine is chemically mo) [Example 724]",
    "qualitative_label": "not met"
  },
  {
    "binder": "YXQGTXTSDXSIXLDKKAQXXFIEYLQEGGPSSGEPPPEGSEE (synthetic construct; SITE 2: note = 2-Aminoisobutyric Acid; SITE 6: note = alpha-methyl-2-fluoro-L-phenylalanine; SITE 10: note = 3-(4-Pyridyl)-L-alanine; SITE 13: note = alpha-methyl-leucine; SITE 17: note = Lysine is chemically modified through conjugation of the epsilon-amino group of the Lysine) [Example 653]",
    "qualitative_label": "not met"
  },
  {
    "binder": "YXQGTXTSDXSILLDKKAQXAFIEYLEEGGPSSGAPPPEGTGE (synthetic construct; SITE 2: note = 2-Aminoisobutyric Acid; SITE 6: note = alpha-methyl-2-fluoro-L-phenylalanine; SITE 10: note = 3-(4-Pyridyl)-L-alanine; SITE 17: note = Lysine is chemically modified through conjugation of the epsilon-amino group of the Lysine side chain with (gamma-Glu)2-CO-(CH2)1) [Example 660]",
    "qualitative_label": "met"
  },
  {
    "binder": "YXQATXTSDXXIXLDXKAQXEFIEXLVEGGPSSGAPPPSGS (synthetic construct; SITE 2: note = 2-Aminoisobutyric Acid; SITE 4: note = D-amino acid; SITE 6: note = alpha-methyl-2-fluoro-L-phenylalanine; SITE 10: note = 3-(4-Pyridyl)-L-alanine; SITE 11: note = alpha-methyl-L-serine; SITE 13: note = alpha-methyl-leucine; SITE 16: note = L-ornithine; SITE 17: n) [Example 1204]",
    "qualitative_label": "met"
  },
  {
    "binder": "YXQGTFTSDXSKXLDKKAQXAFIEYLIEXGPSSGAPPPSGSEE (non-natural residues; C18 diacid-(γGlu)2 on Lys; C-terminal amide; synthetic construct; SITE 2: note = 2-Aminoisobutyric Acid; SITE 10: note = 3-(4-Pyridyl)-L-alanine; SITE 13: note = alpha-methyl-leucine; SITE 17: note = Lysine is chemically modified through conjugation of the epsilon-amino group of the Lysine side chain with (gamma-Glu)2-CO-(CH2)16-CO2H; SITE 20:) [Example 905]",
    "qualitative_label": "met"
  },
  {
    "binder": "Y[Aib]QGTFTSDYSI[αMeL]LDKIAAK([AEEA-AEEA-γGlu-C20 diacid])QFVQWLIE[Aib]GPSSGEPPPSEG-NH2 [Example 323]",
    "qualitative_label": "met"
  }
]
